- TESTED_TARGET: M^pro protein (SARS-CoV-2 main protease) (Severe acute respiratory syndrome coronavirus 2)
- PROTOCOL_DESCRIPTION: FRET-based in vitro enzymatic inhibition assay
- Assay type: biochemical
MEASURE: IC50

Data request: Reported IC50, compound Cc1cn(-c2cc(NC(=O)c3ccc(C)c(Nc4nccc(-c5cccnc5)n4)c3)cc(C(F)(F)F)c2)cn1 [Nilotinib, reference compound] : ____
Data returned: 19.9 µM
